- ASSAY SYSTEM: recombinant full-length human GSK3β (Homo sapiens, UniProt P49841)
- Construct: recombinant full-length human GSK3β (Upstate); purchased Upstate
- Sequence (P49841 whole entry): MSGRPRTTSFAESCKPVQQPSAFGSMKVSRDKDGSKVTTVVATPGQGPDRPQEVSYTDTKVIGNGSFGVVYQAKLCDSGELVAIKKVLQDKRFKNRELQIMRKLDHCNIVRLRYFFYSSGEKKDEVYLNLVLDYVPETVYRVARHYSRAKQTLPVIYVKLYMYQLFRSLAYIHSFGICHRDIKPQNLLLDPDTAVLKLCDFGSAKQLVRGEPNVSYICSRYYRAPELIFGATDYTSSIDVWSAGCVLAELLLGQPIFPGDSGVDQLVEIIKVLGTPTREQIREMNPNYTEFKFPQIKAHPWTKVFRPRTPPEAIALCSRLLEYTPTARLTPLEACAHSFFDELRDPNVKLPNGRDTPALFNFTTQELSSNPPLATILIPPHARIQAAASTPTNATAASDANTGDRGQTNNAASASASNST
- ASSAY OVERVIEW: Luciferase-coupled cell-free GSK3β kinase assay
- Format: biochemical
- CONDITION LABEL: Table 2
pIC50: −log10 of the molar value.
MEASUREMENT TYPE: pIC50

>  <COMPOUND>
CC1Cc2ccccc2N1C(=O)CCCNc1c(F)c(N)c2c(=O)c(C(=O)O)cn3c2c1OC[C@@H]3C (stereo partly shown) [compound 90]

>  <READING>
6.00 to 6.30

$$$$
>  <COMPOUND>
Nc1c(F)c(NCCCn2cc[n+]3ccccc23)c2c3c1c(=O)c(C(=O)O)cn3CCO2 [compound 10]

>  <READING>
6.00 to 6.30

$$$$
>  <COMPOUND>
COc1cccc(CCCNc2c(F)c(N)c3c(=O)c(C(=O)O)cn4c3c2OC[C@@H]4C)c1 [compound 89]

>  <READING>
> 7.00

$$$$

[ask] Specify pIC50 for CC1(C)COc2c(NCCNc3ccccn3)c(F)c(N)c3c(=O)c(C(=O)O)cn1c23 [compound 16] and stop.
[reply] > 7.00

[ask] Specify pIC50 for CCN(CCCNc1c(F)c(N)c2c(=O)c(C(=O)O)cn3c2c1OC[C@@H]3C)c1ccccc1 [compound 76] and stop.
[reply] > 7.00

[ask] Specify pIC50 for C[C@H]1COc2c(NCCN3CCC(c4ccccc4)C3)c(F)c(N)c3c(=O)c(C(=O)O)cn1c23 (stereo partly shown) [Example 91] and stop.
[reply] < 6.00

[ask] Specify pIC50 for CC1(C)COc2c(NCCCn3ccnc3)c(F)c(N)c3c(=O)c(C(=O)O)cn1c23 [compound 33] and stop.
[reply] 6.30 to 7.00

[ask] Specify pIC50 for CC1(C)COc2c(NCCc3ccncc3)c(F)c(N)c3c(=O)c(C(=O)O)cn1c23 [compound 39] and stop.
[reply] 6.30 to 7.00

[ask] Specify pIC50 for Nc1c(F)c(NCCNc2ccccn2)c2c3c1c(=O)c(C(=O)O)cn3[C@@H](Cc1ccccc1)CO2 [Example 120] and stop.
[reply] 6.30 to 7.00

[ask] Specify pIC50 for Nc1c(F)c(NCCNc2ccccn2)c(F)c2c1c(=O)cc(C(=O)O)n2C1CC1 [Example 136] and stop.
[reply] < 6.00
